From: PubChem BioAssay (NCI)

# Tested on: MALME-3M melanoma
# run_description: NCI-60 one-dose screen, 48 h (100 = growth as untreated, 0 = no growth, -100 = all killed)
# stated_conditions: 10 µM unless noted
The panel holds about 83,000 compounds, 20% with a hit somewhere; the sample as a whole holds those more often.
For each entry below, report its growth value.
Give bare numbers, in %.

Please review the following examples before continuing.
CC(=O)O[C@H]1Cc2c([nH]c3ccccc23)[C@@H](c2ccc(Cl)cc2)N1C(=O)CCNC(C)(C)C; -37.8
N#CC1C(C#N)C2c3ccccc3C=CN2C1C(=O)c1ccc(Br)cc1 (centres undefined); 100
NS(=O)(=O)c1ccc(Cn2c(SCC(=O)N/N=C/c3ccccc3O)nc3ccccc3c2=O)cc1; 59
Cc1cccc(NC(=O)Nc2ccc(-c3ccc4c(c3)NC(=O)/C4=C\c3ccc[nH]3)cc2)c1; 105

Each compound below has a recorded value; state its growth.
1. COc1ccccc1NS(=O)(=O)c1cccc(C(=O)Nc2ccc(Br)cc2)c1
2. COc1cccc(-c2nc3occn3c2-c2ccnc(NCCCNS(=O)(=O)c3ccc(C(F)(F)F)cc3)n2)c1

Reply:
1: 32; 2: 95.8

For each listed entry, give its growth.
1. c1ccc(Cn2cnc3ccc(-c4nc(-c5ccc6c(c5)ncn6C5CCCCC5)cn5ccnc45)cc32)cc1
2. NS(=O)(=O)c1ccc(CCN2C(=O)c3cc(Cl)c(Cl)cc3C2=O)cc1
3. CC(C)N1C(=O)S/C(=C2/SC(=O)N(C(C)C)C2=O)C1=O

Reply:
-15.4
110
90.4
